System tested: fms (Homo sapiens)
Sequence (P07333 582-910 limits assumed, species assumed): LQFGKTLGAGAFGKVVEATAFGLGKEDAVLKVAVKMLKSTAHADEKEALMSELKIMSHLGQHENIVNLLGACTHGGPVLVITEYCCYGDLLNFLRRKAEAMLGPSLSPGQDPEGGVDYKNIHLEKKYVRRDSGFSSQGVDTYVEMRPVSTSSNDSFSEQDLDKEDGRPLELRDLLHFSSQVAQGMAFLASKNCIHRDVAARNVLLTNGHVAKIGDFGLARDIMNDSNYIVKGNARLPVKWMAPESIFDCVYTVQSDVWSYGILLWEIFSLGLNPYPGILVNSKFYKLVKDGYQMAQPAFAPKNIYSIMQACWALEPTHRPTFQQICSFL
Test details: fms kinase assay (ELISA or Alphascreen)
Type: biochemical
Measurement context: read-out: fms inhibition of enzyme activity
# reported inhibition at 10 µM; entries follow

Query block: Using the record for `COc1cc(-c2cncc(C(=O)Nc3ccc(F)cc3C)c2)c(Cl)c(OC)c1OC` , report its inhibition at 10 µM.
Result block: ≥ 50%
